List of PBM E-score values.
Target: Sko1 (UniProt Q02100)
Sequence: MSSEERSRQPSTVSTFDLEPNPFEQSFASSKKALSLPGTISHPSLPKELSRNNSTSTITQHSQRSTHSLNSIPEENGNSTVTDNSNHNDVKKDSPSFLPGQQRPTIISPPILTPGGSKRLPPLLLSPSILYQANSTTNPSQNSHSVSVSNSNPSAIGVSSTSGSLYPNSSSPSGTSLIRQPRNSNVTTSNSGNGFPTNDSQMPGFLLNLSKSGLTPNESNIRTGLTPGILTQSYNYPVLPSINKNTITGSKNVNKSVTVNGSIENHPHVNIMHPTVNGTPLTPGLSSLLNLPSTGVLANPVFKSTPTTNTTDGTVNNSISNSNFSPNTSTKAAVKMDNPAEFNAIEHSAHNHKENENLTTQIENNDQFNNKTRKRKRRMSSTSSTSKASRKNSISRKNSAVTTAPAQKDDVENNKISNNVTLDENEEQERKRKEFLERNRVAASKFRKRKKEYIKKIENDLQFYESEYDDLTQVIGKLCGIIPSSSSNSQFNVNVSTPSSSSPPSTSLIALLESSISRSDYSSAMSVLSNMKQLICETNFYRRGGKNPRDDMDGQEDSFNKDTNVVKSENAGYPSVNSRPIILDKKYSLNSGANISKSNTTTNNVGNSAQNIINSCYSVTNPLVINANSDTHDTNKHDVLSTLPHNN
Assay: PBM E-score (8-mer binding enrichment) (E-score (-0.5 to 0.5)); higher = stronger / more preferred TF binding
Settings: protein concentration: 200 nM; construct: GST-full length
In all, about 33,000 sequences were measured (“E-score (-0.5 to 0.5)”: median about -0.032, highest 2% from about 0.36 on). This is one part of a sample in which the highest values are shown more often than they occur.
Please respond with just the number, no unit label.

# annotated cases, reported PBM E-score shown
Query string: Quick one: PBM E-score for CCGTAGAG ?
Result string: -0.258

Query string: What value of measured PBM E-score is listed for GCGTAGAC ?
Result string: 0.0511

Query string: // query PBM E-score value for entry AGGTAGAT
Result string: -0.0309

Query string: Would you kindly share the measured PBM E-score for CTGACGGA ?
Result string: 0.0532

Query string: Fill in: PBM E-score of CGTTGCAC is ___
Result string: 0.11

Query string: Look up PBM E-score: GACACTTA
Result string: -0.00276

Query string: Reported PBM E-score for GTGAGCCA : what is it?
Result string: -0.0673

Query string: Can you look up the measured PBM E-score of CCGTAGAA for me?
Result string: -0.14

Further cases:
Query string: Dear colleague, I am looking for the recorded PBM E-score of the following sequence: AAATGTCG
Result string: 0.159
